The entries below come with measured log10(EC50) values attached.
experiment: Cytotoxicity against human 9KB cells; format: functional; conditions: read-out: ED50 (the source's name)
Record value = log10 of EC50 given in µg/mL.

| Compound | log10(EC50) |
| --- | --- |
| COc1cc([C@@H]2c3cc4c(cc3C[C@H]3COC(=O)[C@@H]32)OCO4)cc2c1OCO2 [AUSTROBAILIGNAN 1] | -1.57 |

Q: Which measured log10(EC50) value corresponds to COc1c2ccoc2c(OCC=C(C)C)c2oc(=O)ccc12 [PHELLOPTERIN] ?
Ans: 0.86

Q: Which measured log10(EC50) value corresponds to COc1cc2ccc(=O)oc2cc1O [SCOPOLETIN] ?
Ans: 0.46

Q: Which measured log10(EC50) value corresponds to CC(C)=CCOc1c2occc2cc2ccc(=O)oc12 [PENTOSALEN] ?
Ans: 1.52

Q: Which measured log10(EC50) value corresponds to CC[C@H](CC[C@@H](C)[C@H]1CC[C@H]2[C@@H]3CC=C4C[C@@H](O)CC[C@]4(C)[C@H]3CC[C@]12C)C(C)C [BETA-SITOSTEROL] ?
Ans: 1.34

Q: Which measured log10(EC50) value corresponds to CC1(C)C=Cc2c(ccc3ccc(=O)oc23)O1 [SESALIN] ?
Ans: 1.49

Q: Which measured log10(EC50) value corresponds to O=C1OC[C@H](Cc2ccc3c(c2)OCO3)/C1=C\c1ccc2c(c1)OCO2 [SAVININ] ?
Ans: 1.34

Q: Which measured log10(EC50) value corresponds to O=C1OCC(C(O)c2ccc3c(c2)OCO3)C1Cc1ccc2c(c1)OCO2 (centres undefined) [SVENTENIN] ?
Ans: 1.36

Values from ChEMBL document CHEMBL1151366
